Each recorded value in this set is attributed to the Immune Epitope Database (IEDB).

- experimental-system: HLA-A*02:11
- method-summary: IEDB peptide-MHC binding, purified MHC/direct/fluorescence; filed as Kd, often an IC50 or EC50 that approximates it; bounds were set here for any values at or beyond the usual limits of such assays
- settings: source organism: Ravn virus - Ravn, Kenya, 1987
property-name: Kd

Supply reported Kd belonging to this sequence: "DLEKYNLAF"
≥ 20 µM

---

- experimental-system: HLA-A*11:01
- method-summary: IEDB peptide-MHC binding, purified MHC/competitive/radioactivity; filed as Kd, often an IC50 or EC50 that approximates it; bounds were set here for any values at or beyond the usual limits of such assays
- settings: source organism: Mammarenavirus machupoense
pKd: −log10 of the molar value.
property-name: pKd

Supply reported pKd belonging to this sequence: "TMLRNSELCH"
≤ 4.16

---

- experimental-system: HLA-B*07:02
- method-summary: IEDB peptide-MHC binding, purified MHC/competitive/fluorescence; filed as Kd, often an IC50 or EC50 that approximates it; bounds were set here for any values at or beyond the usual limits of such assays
- settings: source organism: Shigella flexneri 5 str. 8401
pKd: −log10 of the molar value.
property-name: pKd

Supply reported pKd belonging to this sequence: "FGALFMWLL"
≤ 5.30

---

- experimental-system: HLA-B*08:01
- method-summary: IEDB peptide-MHC binding, purified MHC/competitive/radioactivity; filed as Kd, often an IC50 or EC50 that approximates it; bounds were set here for any values at or beyond the usual limits of such assays
- settings: source organism: Vaccinia virus WR
property-name: Kd (nM)
Give bare numbers, in nM.

item-sequence | measurement-units | Kd
IVYSLVTTI | nM | 13600
LPMLYFLYV | nM | 2.51
MLLCHKPTL | nM | 18.7
NMKFKNSVE | nM | 1340
EPKISLLPL | nM | 8.53

Dear colleague, could you send me Kd for each of the items below? Thanks.
1. MPTYKHLIM
2. EKIIHFLTI
3. NPKFFKVYL

[0.13, 5.04, 190]

Dear colleague, could you send me Kd for each of the items below? Thanks.
1. EAKRKLTEL
2. MLMFIFTGI
3. FNKTIFLSE
4. SIRYRQRLI
5. MYKSRVERV

1. 2.45
2. 265
3. 255
4. 218
5. 46.5

---

- experimental-system: HLA-A*02:01
- method-summary: IEDB peptide-MHC binding, purified MHC/competitive/radioactivity; filed as Kd, often an IC50 or EC50 that approximates it; bounds were set here for any values at or beyond the usual limits of such assays
- settings: source organism: dengue virus type 2
property-name: pKd
One number for each entry, as −log10 of the molar value.

Supply reported pKd belonging to this sequence: "RTNDWDFVV"
6.78

---

- experimental-system: HLA-B*39:01
- method-summary: IEDB peptide-MHC binding, purified MHC/competitive/fluorescence; filed as Kd, often an IC50 or EC50 that approximates it; bounds were set here for any values at or beyond the usual limits of such assays
- settings: source organism: Orthohantavirus sinnombreense
pKd: −log10 of the molar value.
property-name: pKd

Give pKd only, for "RTLGVFRYK" , using HLA-B*39:01 data.
≤ 4.70

---

- experimental-system: HLA-B*15:01
- method-summary: IEDB peptide-MHC binding, purified MHC/competitive/radioactivity; filed as Kd, often an IC50 or EC50 that approximates it; bounds were set here for any values at or beyond the usual limits of such assays
- settings: source organism: Dengue virus 4 Dominica/814669/1981
property-name: pKd
Give bare numbers, as −log10 of the molar value.

Supply reported pKd belonging to this sequence: "CLIPTVMAF"
9.19

---

- experimental-system: HLA-A*01:01
- method-summary: IEDB peptide-MHC binding, purified MHC/competitive/radioactivity; filed as Kd, often an IC50 or EC50 that approximates it; bounds were set here for any values at or beyond the usual limits of such assays
- settings: source organism: Lymphocytic choriomeningitis virus (strain Armstrong)
Task for the reader: assign each of the following sequences its reported pKd.
Numbers only, as −log10 of the molar value.

item-sequence | pKd
DLMGVPYCNY | 5.34

Supply reported pKd belonging to this sequence: "FTSDVKAAVI"
6.37

---

- experimental-system: HLA-B*18:01
- method-summary: IEDB peptide-MHC binding, purified MHC/competitive/radioactivity; filed as Kd, often an IC50 or EC50 that approximates it; bounds were set here for any values at or beyond the usual limits of such assays
- settings: source organism: Mammarenavirus lassaense
pKd: −log10 of the molar value.
Task for the reader: assign each of the following sequences its reported pKd.

Use the examples below as a reference point.
item-sequence | experimental-system | property-name | reading
SESDLEFSW | HLA-B*18:01 | pKd | 6.56
GEPKTVKVL | HLA-B*18:01 | pKd | ≤ 4.11

Then there is this sequence:
Give pKd only, for "ADNLITEML" , using HLA-B*18:01 data.
≤ 4.44

---

- experimental-system: HLA-A*11:01
- method-summary: IEDB peptide-MHC binding, purified MHC/direct/fluorescence; filed as Kd, often an IC50 or EC50 that approximates it; bounds were set here for any values at or beyond the usual limits of such assays
- settings: source organism: Yellow fever virus
property-name: pKd
Answers are plain numbers, as −log10 of the molar value.

Supply reported pKd belonging to this sequence: "KVVNRWLFR"
8.35

---

- experimental-system: HLA-A*68:01
- method-summary: IEDB peptide-MHC binding, purified MHC/competitive/radioactivity; filed as Kd, often an IC50 or EC50 that approximates it; bounds were set here for any values at or beyond the usual limits of such assays
- settings: source organism: Vaccinia virus WR
Quick rule for you: Kd under 2 µM gets Yes, anything else gets No.

Consider the worked cases shown below.
item-sequence | assigned-category
KSSSIDVDK | No
GIEFADNDR | Yes
TLVVISVIFY | No

# check: Kd < 2 µM for "NSVANRSKQK"
Yes

# check: Kd < 2 µM for "NLLVQYGAK"
No

# check: Kd < 2 µM for "SSVQLSNNK"
Yes

# check: Kd < 2 µM for "DLLNVTYNIK"
Yes

# check: Kd < 2 µM for "EFIRIIRPDY"
No

---

- experimental-system: HLA-B*40:01
- method-summary: IEDB peptide-MHC binding, purified MHC/competitive/radioactivity; filed as Kd, often an IC50 or EC50 that approximates it; bounds were set here for any values at or beyond the usual limits of such assays
- settings: source organism: Dengue virus 4 Philippines/H241/1956
property-name: Kd (µM)
One number for each entry, in µM.

item-sequence | property-name | measurement-units | reading
GESSSNPTI | Kd | µM | 0.0168

Dear colleague, could you send me Kd for each of the items below? Thanks.
1. IEETNMITL
2. LEENMEVEI

[0.0119, 0.0826]

Give Kd only, for "GEIGAVTLDF" , using HLA-B*40:01 data.
0.073

---

- experimental-system: HLA-B*38:01
- method-summary: IEDB peptide-MHC binding, purified MHC/direct/fluorescence; filed as Kd, often an IC50 or EC50 that approximates it; bounds were set here for any values at or beyond the usual limits of such assays
- settings: source organism: Vibrio cholerae V52
property-name: Kd

Supply reported Kd belonging to this sequence: "IVKQGRDAL"
≥ 20 µM

---

- experimental-system: HLA-B*45:06
- method-summary: IEDB peptide-MHC binding, purified MHC/competitive/fluorescence; filed as Kd, often an IC50 or EC50 that approximates it; bounds were set here for any values at or beyond the usual limits of such assays
- settings: source organism: Cryptosporidium parvum Iowa II
pKd: −log10 of the molar value.
property-name: pKd

Supply reported pKd belonging to this sequence: "RIYKRSLKL"
≤ 5.30

---

- experimental-system: HLA-B*27:02
- method-summary: IEDB peptide-MHC binding, purified MHC/direct/fluorescence; filed as Kd, often an IC50 or EC50 that approximates it; bounds were set here for any values at or beyond the usual limits of such assays
- settings: source organism: Cryptosporidium parvum Iowa II
property-name: Kd (µM)
One number for each entry, in µM.

Give Kd only, for "RKWGLDFCY" , using HLA-B*27:02 data.
7

---

- experimental-system: HLA-B*18:01
- method-summary: IEDB peptide-MHC binding, purified MHC/competitive/radioactivity; filed as Kd, often an IC50 or EC50 that approximates it; bounds were set here for any values at or beyond the usual limits of such assays
- settings: source organism: Mammarenavirus juninense
property-name: Kd (µM)
Give bare numbers, in µM.

Supply reported Kd belonging to this sequence: "HDLPLLCNL"
12.2

---

- experimental-system: HLA-A*03:01
- method-summary: IEDB peptide-MHC binding, purified MHC/competitive/fluorescence; bounds were set here for any values at or beyond the usual limits of such assays
- settings: source organism: Zaire ebolavirus
property-name: IC50

item-sequence | experimental-system | IC50
GKRSNTTGK | HLA-A*03:01 | 52.6 µM
HSFEEMYRH | HLA-A*03:01 | 49.4 µM
TLRKERLAK | HLA-A*03:01 | 0.509 µM

Dear colleague, could you send me IC50 for each of the items below? Thanks.
1. VIYRGTTFA
2. ITGGRRTRR
3. DQEKKILMN
4. GIYIEGLMH

["4.21 µM", "6.85 µM", "≥ 386 µM", "16.1 µM"]
